Provenance of the data: patent US20240317859A1

target: Human PD-1/PDCD1 Protein (PD-1) (human, UniProt Q15116 25-167, limits assumed); assay: SPR, Biacore 8K; PD-1 captured by anti-His antibody, antibody in flow
Sequence (Q15116 25-167 limits assumed): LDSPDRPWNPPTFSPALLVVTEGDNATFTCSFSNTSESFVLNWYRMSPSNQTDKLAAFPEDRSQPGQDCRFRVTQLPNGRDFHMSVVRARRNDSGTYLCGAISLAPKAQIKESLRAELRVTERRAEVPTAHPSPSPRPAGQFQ
quantity kind: Kd (nM)
Answer with a number only, understood to be in nM.

HM268-L7 (antibody, human IgG1, V domains shown, also called humanized HM268, VH ver.L / VL ver.7) VH: QVQLVQSGPEVKKPGASVKVVCKTSGYTFTSYYIQWVRQVPGQGLEWMGWIYFGDASTKYNEKFKGRVTMTADTSTSTAYMELRSLRSDDTAVYYCASYYGSYFDYWGQGTTVTVSS VL: DIQMTQNTSSLSASVGDRVTITCRASQDISNYLNWYQQKPDGTVKLLIYSTSRLHSGVPSRFSGSGSGTDYTLTISSLEQEDFATYYCQQGSTLPFTFGQGTKLEIK : 0.00216

Consider the record given below.
Task: For HM297-G5 (antibody, human IgG1, V domains shown, also called humanized HM297, VH ver.G / VL ver.5) VH: QVQLVQSGPEVKKPGASVKIPCKASGYTFTDYNVDWVRQVPGQGLEWIGDIDPNNGGTIYNQKFKDKATLTVDKSTRTAYMELRSLRSDDTAVYYCARWRGAMDYWGQGTLVTVSS VL: DIQMTQSPSSLSASVGDRVTITCRASQDIDNYLKWYQQKPDGTVKLLIYDTSRLHSGVPSRFSGSGSGTDYTLTISSLKQEDFATYYCQQGYTLPWTFGQGTKLEIK , what is its reported Kd?
Result: 0.232
